assay: Surface tension measurement (Tracker tensiometer); type: physicochemical; details: concentration 0.025 %; room temperature
Task for the reader: assign each of the following compounds its reported Surface tension.
Answers are plain numbers, in mN/m.

Before answering, review these 3 worked examples.
* CCCCCCCCCCCCCCCCCC[N+](C)(C)CC(O)CN(CCN(CCN(CC(O)C[N+](C)(C)CCCCCCCCCCCCCCCCCC)CC(O)C[N+](C)(C)CCCCCCCCCCCCCCCCCC)CC(O)C[N+](C)(C)C)CC(O)C[N+](C)(C)CCCCCCCCCCCCCCCCCC.[Cl-].[Cl-].[Cl-].[Cl-].[Cl-] (stereo not shown) | 60.01
* CCCCCCCCCCCCCCCCCC[N+](C)(C)CC(O)CN(CCN(CCN(CC(O)C[N+](C)(C)C)CC(O)C[N+](C)(C)CCCCCCCCCCCCCCCCCC)CC(O)C[N+](C)(C)C)CC(O)C[N+](C)(C)C.[Cl-].[Cl-].[Cl-].[Cl-].[Cl-] (stereo not shown) | 69.16
* CCCCCCCCCCCCCCCCCC[N+](C)(C)CC(O)CN(CCN(CC(O)C[N+](C)(C)CCCCCCCCCCCCCCCCCC)CC(O)C[N+](C)(C)CCCCCCCCCCCCCCCCCC)CCN(CC(O)C[N+](C)(C)CCCCCCCCCCCCCCCCCC)CC(O)C[N+](C)(C)CCCCCCCCCCCCCCCCCC.[Cl-].[Cl-].[Cl-].[Cl-].[Cl-] (stereo not shown) | 55.77

Kindly consider the entry below.
Ask: Answer with the recorded Surface tension for the compound listed here: CCCCCCCCCCCCCCCCCC[N+](C)(C)CC(O)CN(CCN(CCN(CC(O)C[N+](C)(C)CCCCCCCCCCCCCCCCCC)CC(O)C[N+](C)(C)CCCCCCCCCCCCCCCCCC)CC(O)C[N+](C)(C)CCCCCCCCCCCCCCCCCC)CCN(CC(O)C[N+](C)(C)CCCCCCCCCCCCCCCCCC)CC(O)C[N+](C)(C)CCCCCCCCCCCCCCCCCC.[Cl-].[Cl-].[Cl-].[Cl-].[Cl-].[Cl-] (stereo not shown)
Result: 59.04

###

assay: Corrosion bubble cell test (Linear Polarization Resistance); settings: 2 ppm with 1% 2ME synergist; CO2-saturated brine/hydrocarbon, 80° C.; three hours baseline (Tables 8, 9)
observationType: % Protection (%)
Numbers only, in %.

List % Protection for every entry below, keeping the order given.
1. CCCCCCCCCCCCCCCCCC[N+](C)(C)CC(O)CN(CCN(CCN(CC(O)C[N+](C)(C)CCCCCCCCCCCCCCCCCC)CC(O)C[N+](C)(C)CCCCCCCCCCCCCCCCCC)CC(O)C[N+](C)(C)C)CC(O)C[N+](C)(C)CCCCCCCCCCCCCCCCCC.[Cl-].[Cl-].[Cl-].[Cl-].[Cl-] (stereo not drawn)
2. CCCCCCCCCCCCCCCCCC[N+](C)(C)CC(O)CN(CCN(CCN(CC(O)C[N+](C)(C)C)CC(O)C[N+](C)(C)C)CC(O)C[N+](C)(C)C)CC(O)C[N+](C)(C)C.[Cl-].[Cl-].[Cl-].[Cl-].[Cl-] (stereo not drawn)
3. CCCCCCCCCCCCCCCCCC[N+](C)(C)CC(O)CN(CCN(CC(O)C[N+](C)(C)CCCCCCCCCCCCCCCCCC)CC(O)C[N+](C)(C)CCCCCCCCCCCCCCCCCC)CCN(CC(O)C[N+](C)(C)CCCCCCCCCCCCCCCCCC)CC(O)C[N+](C)(C)CCCCCCCCCCCCCCCCCC.[Cl-].[Cl-].[Cl-].[Cl-].[Cl-] (stereo not drawn)

Result:
1. 76
2. 64
3. 55

###

Task for the reader: assign each of the following molecules its reported Surface tension.
experiment: Surface tension measurement (Tracker tensiometer); assay type: physicochemical; details: concentration 0.050 %; room temperature
Numbers only, in mN/m.

Before answering, review these 3 worked examples.
- CCCCCCCCCCCCCCCCCC[N+](C)(C)CC(O)CN(CCN(CCN(CC(O)C[N+](C)(C)CCCCCCCCCCCCCCCCCC)CC(O)C[N+](C)(C)CCCCCCCCCCCCCCCCCC)CC(O)C[N+](C)(C)C)CC(O)C[N+](C)(C)C.[Cl-].[Cl-].[Cl-].[Cl-].[Cl-] (stereo not drawn) [Compound 10]: 57.33
- CCCCCCCCCCCCCCCCCC[N+](C)(C)CC(O)CN(CCN(CCN(CC(O)C[N+](C)(C)C)CC(O)C[N+](C)(C)CCCCCCCCCCCCCCCCCC)CC(O)C[N+](C)(C)C)CC(O)C[N+](C)(C)C.[Cl-].[Cl-].[Cl-].[Cl-].[Cl-] (stereo not drawn) [Compound 9]: 60.77
- CCCCCCCCCCCCCCCCCC[N+](C)(C)CC(O)CN(CCN(CCN(CC(O)C[N+](C)(C)C)CC(O)C[N+](C)(C)C)CC(O)C[N+](C)(C)C)CC(O)C[N+](C)(C)C.[Cl-].[Cl-].[Cl-].[Cl-].[Cl-] (stereo not drawn) [Compound 7]: 64.84

List Surface tension for every entry below, keeping the order given.
1. CCCCCCCCCCCCCCCCCC[N+](C)(C)CC(O)CN(CCN(CCN(CC(O)C[N+](C)(C)CCCCCCCCCCCCCCCCCC)CC(O)C[N+](C)(C)CCCCCCCCCCCCCCCCCC)CC(O)C[N+](C)(C)C)CC(O)C[N+](C)(C)CCCCCCCCCCCCCCCCCC.[Cl-].[Cl-].[Cl-].[Cl-].[Cl-] (stereo not drawn) [Compound 11]
2. CCCCCCCCCCCCCCCCCC[N+](C)(C)CC(O)CN(CCN(CCN(CC(O)C[N+](C)(C)CCCCCCCCCCCCCCCCCC)CC(O)C[N+](C)(C)CCCCCCCCCCCCCCCCCC)CC(O)C[N+](C)(C)CCCCCCCCCCCCCCCCCC)CCN(CC(O)C[N+](C)(C)CCCCCCCCCCCCCCCCCC)CC(O)C[N+](C)(C)CCCCCCCCCCCCCCCCCC.[Cl-].[Cl-].[Cl-].[Cl-].[Cl-].[Cl-] (stereo not drawn) [Compound 13]
3. CCCCCCCCCCCCCCCCCC[N+](C)(C)CC(O)CN(CCN(CC(O)C[N+](C)(C)CCCCCCCCCCCCCCCCCC)CC(O)C[N+](C)(C)CCCCCCCCCCCCCCCCCC)CCN(CC(O)C[N+](C)(C)CCCCCCCCCCCCCCCCCC)CC(O)C[N+](C)(C)CCCCCCCCCCCCCCCCCC.[Cl-].[Cl-].[Cl-].[Cl-].[Cl-] (stereo not drawn) [Compound 12]

Result:
[56.35, 55.36, 51.89]

###

Assay: Surface tension measurement (Tracker tensiometer)
Format: physicochemical
Details: concentration 0.025 %; room temperature
Protocol: Surface tension measurements were conducted on a Tracker tensiometer (Teclis Instruments) at room temperature. Various concentrations of surfactant solutions were prepared and measurements were conducted. The surface tension as a function of concentration of the cationic surfactant samples were measured and are listed in Table 2, where NT means not tested.
observationType: Surface tension (mN/m)
Numbers only, in mN/m.

- CCCCCCCCCCCCCCCCCC[N+](C)(C)CC(O)CN(CCN(CCN(CC(O)C[N+](C)(C)CCCCCCCCCCCCCCCCCC)CC(O)C[N+](C)(C)CCCCCCCCCCCCCCCCCC)CC(O)C[N+](C)(C)C)CC(O)C[N+](C)(C)C.[Cl-].[Cl-].[Cl-].[Cl-].[Cl-] (centres unmarked): 61.99

Kindly consider the entry below.
Ask: Answer with the recorded Surface tension for the compound listed here: CCCCCCCCCCCCCCCCCC[N+](C)(C)CC(O)CN(CCN(CCN(CC(O)C[N+](C)(C)C)CC(O)C[N+](C)(C)C)CC(O)C[N+](C)(C)C)CC(O)C[N+](C)(C)C.[Cl-].[Cl-].[Cl-].[Cl-].[Cl-] (centres unmarked)
Result: 72.05

###

test: Corrosion bubble cell test (Linear Polarization Resistance); conditions: 2 ppm with 1% 2ME synergist; CO2-saturated brine/hydrocarbon, 80° C.; three hours baseline (Tables 8, 9)
observationType: % Protection (%)
Answers are plain numbers, in %.

- CCCCCCCCCCCCCCCCCC[N+](C)(C)CC(O)CN(CCN(CCN(CC(O)C[N+](C)(C)CCCCCCCCCCCCCCCCCC)CC(O)C[N+](C)(C)CCCCCCCCCCCCCCCCCC)CC(O)C[N+](C)(C)CCCCCCCCCCCCCCCCCC)CCN(CC(O)C[N+](C)(C)CCCCCCCCCCCCCCCCCC)CC(O)C[N+](C)(C)CCCCCCCCCCCCCCCCCC.[Cl-].[Cl-].[Cl-].[Cl-].[Cl-].[Cl-] (centres unmarked) [Compound 13]: 52

Kindly consider the entry below.
Ask: Answer with the recorded % Protection for the compound listed here: CCCCCCCCCCCCCCCCCC[N+](C)(C)CC(O)CN(CCN(CCN(CC(O)C[N+](C)(C)C)CC(O)C[N+](C)(C)CCCCCCCCCCCCCCCCCC)CC(O)C[N+](C)(C)C)CC(O)C[N+](C)(C)C.[Cl-].[Cl-].[Cl-].[Cl-].[Cl-] (centres unmarked) [Compound 9]
Result: 60

Where do the numbers come from? From patent US10899910B2.
